The values you see were collected from ChEMBL document CHEMBL3885861.

# Species on record: Rattus norvegicus
# experimental-protocol: Open TG-GATES - Regimen: Daily Repeat
# Format: toxicity, organism-based, Sprague-Dawley
# Set-up: regimen Daily Repeat, gender Male, age 6 weeks
# experimental-parameters: in vivo, po, 0 mg/kg, 72 h, tissue Blood, route gavage, dose level Control, time 3 day
reported-endpoint: Plat (x10_4/uL)

INSERT INTO assay_data (molecule, result_unit, endpoint_result) VALUES
  ('CC(C)NNC(=O)c1ccncc1 [IPRONIAZID]', 'x10_4/uL', 127.9),
  ('NC1=NC(=O)C(c2ccccc2)O1 (stereo unspecified) [PEMOLINE]', 'x10_4/uL', 105.9),
  ('CCOc1ccc(NC(C)=O)cc1 [PHENACETIN]', 'x10_4/uL', 121.2),
  ('CNC(=C[N+](=O)[O-])NCCSCc1ccc(CN(C)C)o1 [RANITIDINE]', 'x10_4/uL', 112),
  ('CN(C)CCC(c1ccc(Cl)cc1)c1ccccn1 (stereo unspecified) [CHLORPHENIRAMINE]', 'x10_4/uL', 127.5),
  ('CCCc1cc(=O)[nH]c(=S)[nH]1 [PROPYLTHIOURACIL]', 'x10_4/uL', 113.1);

====

# Species on record: Rattus norvegicus
# experimental-protocol: Open TG-GATES - Regimen: Daily Repeat
# Format: toxicity, organism-based, Sprague-Dawley
# Parameters: regimen Daily Repeat, gender Male, age 6 weeks
# experimental-parameters: in vivo, po, 300 mg/kg, […], tissue Blood, route gavage, dose level Middle, time 28 day
Catalogue of compounds with associated Neu
reported-endpoint: Neu

INSERT INTO measurements (compound_structure, reported_endpoint, endpoint_result) VALUES
  ('O=C(OC[C@H]1O[C@@H](OC(=O)c2cc(O)c(O)c(OC(=O)c3cc(O)c(O)c(O)c3)c2)[C@H](OC(=O)c2cc(O)c(O)c(OC(=O)c3cc(O)c(O)c(O)c3)c2)[C@@H](OC(=O)c2cc(O)c(O)c(OC(=O)c3cc(O)c(O)c(O)c3)c2)[C@@H]1OC(=O)c1cc(O)c(O)c(OC(=O)c2cc(O)c(O)c(O)c2)c1)c1cc(O)c(O)c(OC(=O)c2cc(O)c(O)c(O)c2)c1', 'Neu', '14.5%'),
  ('CN/C(=N/CCSCc1nc[nH]c1C)NC#N', 'Neu', '13.2%'),
  ('Cc1nnc2n1-c1ccc(Cl)cc1C(c1ccccc1Cl)=NC2', 'Neu', '14.2%'),
  ('CNC(=C[N+](=O)[O-])NCCSCc1ccc(CN(C)C)o1', 'Neu', '14%'),
  ('COC(=O)C1=C(C)NC(C)=C(C(=O)OC)C1c1ccccc1[N+](=O)[O-]', 'Neu', '21%');

====

# Species: Rattus norvegicus
# experimental-protocol: Open TG-GATES - Regimen: Daily Repeat
# Assay type: toxicity, organism-based, Sprague-Dawley
# Parameters: regimen Daily Repeat, gender Male, age 6 weeks
# experimental-parameters: in vivo, po, 100 mg/kg, 72 h, tissue Blood, route gavage, dose level Low, time 3 day
reported-endpoint: Ht (%)

INSERT INTO assay_data (compound, endpoint_result) VALUES
  ('Cc1nnc2n1-c1ccc(Cl)cc1C(c1ccccc1Cl)=NC2 [TRIAZOLAM]', 41.1),
  ('CCOc1ccc(NC(C)=O)cc1 [PHENACETIN]', 41.7),
  ('CNC(=C[N+](=O)[O-])NCCSCc1ccc(CN(C)C)o1 [RANITIDINE]', 40.9),
  ('O=C(OC[C@H]1O[C@@H](OC(=O)c2cc(O)c(O)c(OC(=O)c3cc(O)c(O)c(O)c3)c2)[C@H](OC(=O)c2cc(O)c(O)c(OC(=O)c3cc(O)c(O)c(O)c3)c2)[C@@H](OC(=O)c2cc(O)c(O)c(OC(=O)c3cc(O)c(O)c(O)c3)c2)[C@@H]1OC(=O)c1cc(O)c(O)c(OC(=O)c2cc(O)c(O)c(O)c2)c1)c1cc(O)c(O)c(OC(=O)c2cc(O)c(O)c(O)c2)c1 [TANNIC ACID]', 39.2),
  ('CN/C(=N/CCSCc1nc[nH]c1C)NC#N [CIMETIDINE]', 38.6),
  ('COC(=O)C1=C(C)NC(C)=C(C(=O)OC)C1c1ccccc1[N+](=O)[O-] [NIFEDIPINE]', 42.3);
